Listing of entries alongside the reported % Neutralization.
TEST_SYSTEM: hemagglutinin (HA) on live influenza A virus A/Wisconsin/67/05 H3N2 (Influenza A virus A/Wisconsin/67/2005 …)
ASSAY_SUMMARY: cell-based or functional assay
Provide only the numeric value, understood in %.

Item under review: TCN-552 (5249_I23) (antibody, V domains shown) VH: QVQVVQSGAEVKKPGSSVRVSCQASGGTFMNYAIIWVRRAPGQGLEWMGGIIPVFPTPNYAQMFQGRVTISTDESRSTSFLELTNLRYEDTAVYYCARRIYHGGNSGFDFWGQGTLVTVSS VL: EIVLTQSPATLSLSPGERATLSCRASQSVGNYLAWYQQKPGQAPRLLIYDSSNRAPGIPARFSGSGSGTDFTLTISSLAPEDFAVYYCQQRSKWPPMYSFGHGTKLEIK . Reported % Neutralization?
14

Now try TCN-540 (5060_F05) (antibody, V domains shown) VH: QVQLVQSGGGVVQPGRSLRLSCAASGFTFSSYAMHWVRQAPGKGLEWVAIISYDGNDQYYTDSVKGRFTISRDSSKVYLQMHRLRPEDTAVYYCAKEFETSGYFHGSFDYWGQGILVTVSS VL: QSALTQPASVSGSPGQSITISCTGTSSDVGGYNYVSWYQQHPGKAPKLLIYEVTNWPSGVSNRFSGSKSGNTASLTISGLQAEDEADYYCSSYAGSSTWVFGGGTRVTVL .
98

Now try TCN-553 (5261_C18) (antibody, V domains shown) VH: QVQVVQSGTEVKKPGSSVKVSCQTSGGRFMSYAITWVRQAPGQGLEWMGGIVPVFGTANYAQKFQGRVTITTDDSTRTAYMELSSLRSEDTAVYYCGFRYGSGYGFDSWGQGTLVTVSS VL: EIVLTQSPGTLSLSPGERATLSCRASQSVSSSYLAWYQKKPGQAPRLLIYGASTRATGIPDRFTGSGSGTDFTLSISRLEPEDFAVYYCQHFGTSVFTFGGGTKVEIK .
5
